molecular target: Recombinant human JAK1 (Homo sapiens); construct: catalytic domain (amino acids 866-1154; catalog number PV4774); experiment: JAK1 Ulight-JAK1 peptide assay; conditions: Ulight-JAK1(tyr1023) peptide, 7 μM ATP
Sequence (P23458 866-1154): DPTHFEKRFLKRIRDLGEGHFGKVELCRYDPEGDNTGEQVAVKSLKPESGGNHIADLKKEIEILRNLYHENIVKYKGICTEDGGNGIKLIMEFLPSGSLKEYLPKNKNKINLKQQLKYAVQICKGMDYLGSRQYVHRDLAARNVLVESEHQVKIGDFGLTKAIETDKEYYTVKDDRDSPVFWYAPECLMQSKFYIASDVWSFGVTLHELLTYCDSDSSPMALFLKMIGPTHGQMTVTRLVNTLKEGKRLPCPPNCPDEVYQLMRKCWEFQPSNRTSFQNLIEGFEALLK
pIC50: −log10 of the molar value.
OBSERVED PROPERTY: pIC50

Use the examples below as a reference point.
- COMPOUND: "O=C(Nc1nn2cccc(-c3ccc(CN4CCS(=O)(=O)CC4)cc3)c2c1F)C1CC1"
  pIC50: "7.00 to 11.00"
- COMPOUND: "COC(=O)N1CCN(Cc2ccc(-c3cccn4nc(NC(C)=O)cc34)cc2)CC1"
  pIC50: "6.30 to 7.00"
- COMPOUND: "CC(c1ccc(-c2cccn3nc(NC(=O)C4CC4)cc23)cc1)N1CCN(S(C)(=O)=O)CC1 (stereo not shown)"
  pIC50: "7.00 to 11.00"

Moving on to another compound below.
**Query** pIC50 lookup needed for `O=C(NCCOc1ccccc1)c1ccc(-c2cccn3nc(NC(=O)C4CC4)cc23)cc1` , thanks.
**Result** 7.00 to 11.00

----------
target: Recombinant human TYK2 catalytic domain (Homo sapiens); construct: catalytic domain (amino acids 871-1187; catalog number 08-147); GST; test: TYK2 inhibition assay; conditions: polyGT substrate, 33P-gamma-ATP filter assay, 0.1 μM ATP
Sequence (P29597 871-1187): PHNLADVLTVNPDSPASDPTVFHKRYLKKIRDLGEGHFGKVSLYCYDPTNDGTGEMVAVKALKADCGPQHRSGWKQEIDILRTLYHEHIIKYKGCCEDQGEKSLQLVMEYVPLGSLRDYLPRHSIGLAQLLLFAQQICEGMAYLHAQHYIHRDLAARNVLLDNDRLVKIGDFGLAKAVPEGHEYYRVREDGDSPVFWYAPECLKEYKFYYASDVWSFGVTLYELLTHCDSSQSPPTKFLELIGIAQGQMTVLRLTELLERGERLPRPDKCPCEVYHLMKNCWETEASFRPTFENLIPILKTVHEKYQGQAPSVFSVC
pIC50: −log10 of the molar value.
OBSERVED PROPERTY: pIC50

Use the examples below as a reference point.
- MOLECULE: "C[C@@H]1CN(S(C)(=O)=O)CCN1Cc1ccc(-c2cccn3nc(NC(=O)C4CC4)cc23)cc1"
  pIC50: "7.00 to 11.00"
- MOLECULE: "O=C(Nc1cc2c(-c3ccc(CN4CCCCC45COC5)cc3)cccn2n1)C1CC1"
  pIC50: "6.30 to 7.00"
- MOLECULE: "CC(c1ccc(-c2cccn3nc(NC(=O)C4CC4)cc23)cc1)N1CCN(S(C)(=O)=O)CC1 (centres unmarked)"
  pIC50: "7.00 to 11.00"

**Query** pIC50 lookup needed for `CC(=O)Nc1cc2c(-c3ccc(CC(=O)N4CC(F)(F)C4)cc3)cccn2n1` , thanks.
**Result** 7.00 to 11.00

**Query** Input `O=C(Nc1cc2c(-c3ccc(OCc4ccccc4)cc3)cccn2n1)C1CC1`
**Result** 6.30 to 7.00

----------
target: Recombinant human JAK3 catalytic domain (Homo sapiens, UniProt P52333); construct: catalytic domain (amino acids 795-1124; catalog number 08-046); assay: JAK3 inhibition assay; conditions: polyGT substrate, 33P-gamma-ATP filter assay, 1 μM ATP
Sequence (P52333 795-1124): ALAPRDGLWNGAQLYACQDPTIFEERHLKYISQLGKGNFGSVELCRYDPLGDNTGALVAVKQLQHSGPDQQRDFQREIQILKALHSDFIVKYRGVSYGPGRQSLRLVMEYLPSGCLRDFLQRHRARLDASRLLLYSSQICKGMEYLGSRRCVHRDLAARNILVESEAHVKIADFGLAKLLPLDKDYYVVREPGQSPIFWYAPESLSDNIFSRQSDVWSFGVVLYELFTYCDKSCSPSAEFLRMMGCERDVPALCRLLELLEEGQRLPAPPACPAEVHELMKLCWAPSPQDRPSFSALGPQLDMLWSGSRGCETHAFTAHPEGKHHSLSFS
OBSERVED PROPERTY: IC50

Use the examples below as a reference point.
- SMILES STR: "COc1ccc(-c2cccn3nc(NC(=O)C4CC4)cc23)cc1"
  RESULT: "0.01 to 100 nM"
- SMILES STR: "CS(=O)(=O)C1CCN(Cc2ccc(-c3cccn4nc(NC(=O)C5CC5)c(Cl)c34)cc2F)CC1"
  RESULT: "501 to 1000 nM"
- SMILES STR: "CC(=O)Nc1cc2c(-c3ccc(CC(=O)N4CCCCC4)cc3)cccn2n1"
  RESULT: "0.01 to 100 nM"
- SMILES STR: "CC(=O)Nc1cc2c(-c3ccc(CC(=O)N4CCOCC4)cc3)cccn2n1"
  RESULT: "101 to 500 nM"

**Query** State its IC50 on Recombinant human JAK3 catalytic domain (Homo sapiens, UniProt P52333): `CC(=O)Nc1cc2c(-c3ccc(CC(=O)N4CC(F)(F)C4)cc3)cccn2n1`
**Result** 101 to 500 nM

**Query** Input `O=C(Nc1cc2c(-c3ccc4[nH]ccc4c3)cccn2n1)C1CC1`
**Result** 0.01 to 100 nM

**Query** Input `CC(=O)Nc1cc2c(-c3ccc(CN4CCN(S(C)(=O)=O)C[C@H]4C)cc3)cccn2n1`
**Result** 501 to 1000 nM

**Query** Input `CC(=O)Nc1cc2c(-c3ccc(CC(=O)N4COCC4(C)C)cc3)cccn2n1`
**Result** 501 to 1000 nM
